Test: NCI Yeast Anticancer Drug Screen. Data for the mec2-1 strain (AID 157)
Conditions: S. cerevisiae mec2-1 strain, at 50.0 µM, hits give high values
Compounds without any hit were thinned out: in the full panel of roughly 79,000, 15% have a hit.
What growth inhibition was measured for each of the following?
The answer is to be given in %; state only the numeric part.

input: What value of measured growth inhibition is listed for NC(=O)C(NN=C1c2ccccc2-c2ccccc21)(c1ccccc1)c1ccccc1 ?
output: -0.2

input: Look up growth inhibition for this compound: O/N=C(/CC(O)(C(F)(F)F)C(F)(F)F)c1ccccc1
output: -18

input: Could you share which growth inhibition value was measured for CC(=O)Nc1ccc2c(c1)C(=O)c1ccccc1-2 ?
output: 16.1

input: Which growth inhibition reading was recorded for the compound Nc1c2ccccc2nc2nccnc12 ?
output: 2.65

input: Would you kindly share the measured growth inhibition for COC(=O)/C=C1/OC(c2ccc(C)cc2C)=CC1=O ?
output: 50.7

input: May I ask what growth inhibition has been recorded for COc1ccc(/C(Cl)=C(\C=O)c2ccc(Cl)c(Cl)c2)cc1OC ?
output: 11.2

* * *

Assay: NCI Yeast Anticancer Drug Screen. Data for the mec2-1 strain (AID 157)
Conditions: S. cerevisiae mec2-1 strain, at 50.0 µM
About 79,000 compounds went through this panel and 15% of them were active in at least one assay; those are over-represented in the sample as a whole. Active and inactive are the calls of the source. Cut-off read from the data, not from the text of the source: active = growth inhibition above about 70%; inactive = the rest.
I would appreciate it if you answered using one of these outcomes: active, inactive

input: In this assay, the call recorded for O=CN/C=C\c1cc(O)ccc1O was what?
output: inactive

input: State the result this test recorded for CC(=O)Nc1ccc(/C=C/C(=O)O)cc1 .
output: inactive

input: For O=C(NCCCCNCCCNC(=O)OCc1ccccc1)OCc1ccccc1 , what call appears in the results of this test?
output: inactive

input: Outcome? O=C1c2ccccc2C(=O)N1CC(O)CCl (configuration not stated)
output: inactive

input: Which outcome was entered for the compound CCCCCCCCCCCCCCCC/C(=C\c1ccc2ccccc2c1)[N+](=O)[O-] in this test?
output: inactive

input: Would you mind telling me which call this test gave CC(O)C12OC1CC1C3CC4OC45CC(O)CCC5(C)C3CCC12C (configuration not stated) ?
output: inactive

input: What classification did CCCCCCCC(=O)NC(O)C(Cl)(Cl)C(C)Cl (configuration not stated) end up with in this test?
output: inactive

input: Please let me know the test result on file for CCOC(=O)C(CO)NC(=O)c1cnc2ccccc2c1 (configuration not stated) .
output: inactive

input: # fetch the recorded call for Cc1cc(=O)n(-c2ccc(-c3ccc(-n4c(C)c(C(=O)O)c(C)cc4=O)cc3)cc2)c(C)c1C(=O)O here
output: inactive

input: Hi, sorry to bother you, what did the test record for CC1=C(C)CC2C(=O)c3c(O)ccc(O)c3C(=O)C2C1 (configuration not stated) ?
output: inactive

input: Short answer needed: outcome of this test for C[N+](C)(C)c1cc(Br)c(O)c(Br)c1 ?
output: inactive

input: Would you mind telling me which call this test gave FC(F)(F)c1cccc(NC(=S)SCc2ccc(Cl)c(Cl)c2)c1 ?
output: active

* * *

Experiment: NCI Yeast Anticancer Drug Screen. Data for the mlh1 rad18 strain (AID 175)
Conditions: S. cerevisiae mlh1 rad18 strain growth inhibition; at 50.0 µM; hits give high values
The panel holds about 79,000 compounds, 15% with a hit somewhere; the sample as a whole holds those more often.
Property: growth inhibition (%)
Give just the number in %; leave the unit off.

input: Report growth inhibition for CC[N+](C)(CC)c1cccc(OC(=O)N2CCCCC2)c1 please.
output: -16.9

input: If you can, please state the reported growth inhibition value of O=c1[nH]cnc2c1cnn2-c1ccccc1 .
output: 22.4

input: Record request: growth inhibition value, item O=C(Nc1cccc2ccccc12)Oc1ccc(Br)cc1Br
output: 92.7

input: Could you tell me which growth inhibition is on file for CCOC(=O)c1c(-c2ccc([N+](=O)[O-])cc2)c(C#N)n(-c2ccccc2)c1C ?
output: 6.1

input: Look up growth inhibition: COc1c(Cl)cc(Cl)cc1C(c1cc(Cl)cc(Cl)c1OC)C(Cl)(Cl)Cl
output: 7.1

input: Name the recorded growth inhibition for O=C1OC(=O)c2ccc([N+](=O)[O-])c3c(C(=O)O)ccc1c23 .
output: 2.85

input: GET /values?readout=growth inhibition&item= COc1cc2c(cc1OC)C(=O)C1(C2)[C@H](c2ccccc2)C2C(=O)c3cc(OC)c(OC)cc3C2[C@H]1c1ccccc1 (some centres undefined)
output: 23.1

input: # lookup: growth inhibition of CN(C)c1ccc(C(=Cc2ccccc2)c2ccc(N(C)C)cc2)cc1
output: 5.5

input: Looking for the measured growth inhibition of O=C1C=C(Oc2ccccc2)C(=O)C=C1Oc1ccccc1 , can you help?
output: -11.1

input: Bench note: what growth inhibition did C=CCCCCCCCCCCCCCCCCC show?
output: -28

input: Entry CCCCCCCCCCCCCCCc1cc(OC)ccc1S(=O)(=O)O : reported growth inhibition = ?
output: 15.6

input: I would be grateful if you could share the reported growth inhibition for C[Si](C)(OCCS(=O)(=O)O)C1S(=O)(=O)OCCOS1(=O)=O .
output: -18.4

input: Endpoint output: growth inhibition of CCN(C(=S)Nc1cccc2ccccc12)c1ccccc1 . Value?
output: -7.9

input: Recorded growth inhibition for COc1ccc(Cl)cc1Cl , please?
output: 26.6

input: For the compound Nc1nnc(-c2cccc(-c3nnc(N)o3)c2)o1 , what growth inhibition is on record?
output: -15.1

input: Would you kindly share the measured growth inhibition for CCCCCCCCCCCCCCCCc1c(C(=O)OC)nc(NN)[nH]c1=O ?
output: -12.8

input: Endpoint output: growth inhibition of CCn1nnc2c(C(N)=O)ncn2c1=O . Value?
output: -16.6

input: Name the reported growth inhibition value associated with the compound Cc1ccccc1NC(=O)CSc1nnc(Cc2ccccc2)o1
output: -35.5

input: So what's the measured growth inhibition for this one? CN(C)CCCn1c2ccccc2c2cnccc21
output: 14.8

input: What does the record list as growth inhibition for Nc1[nH]n(-c2ccccc2)c(=O)c1C1c2ccccc2Sc2ccccc21 ?
output: 16.2

input: Could you share which growth inhibition value was measured for CCOC(=O)C1=CC(C)(C(=O)OCC)Nc2c(nc(SC)[nH]c2=O)N1 (centres undefined) ?
output: 2.5

input: # input compound: C/C=C1\CN2CCc3c([nH]c4ccccc34)C2C=C1CCO (centres undefined) ; wanted: its growth inhibition
output: -43.7

input: Param item = CCOC(=O)C(c1ccsc1)C(C(=O)OCC)c1cccs1 (centres undefined) ; retrieve measured growth inhibition.
output: 17

input: Report growth inhibition for COc1cccc(Nc2nc(NS(=O)(=O)c3cc(C)c(Cl)cc3S)n[nH]2)c1 please.
output: 15.8
